Tested on: Pseudomonas sp. ATCC 21438
EXPERIMENT: Oxidation of sec-alcohols to ketones by resting cell suspension
Format: cell-based
CONDITION_SET: methanol-grown, facultative
Conversion Rates, sec-alcohol to methyl ketone by entry:
Provide the reading as a plain figure in μmoles/hr/mg protein.

[[record]]
compound = "CCCCC(C)O (stereo not shown) [2-Hexanol, 2-hexanol]"
data_value = 0.7

[[record]]
compound = "CCCC(C)O (stereo not shown) [2-Pentanol, 2-pentanol]"
data_value = 2.7

[[record]]
compound = "CC(C)O [2-Propanol, 2-propanol]"
data_value = 0.45


Would you mind telling me what Conversion Rates, sec-alcohol to methyl ketone value was observed for CCC(C)O (stereo not shown) [2-Butanol, 2-butanol] ?
3.2
